IC50: recorded values
Molecular target: CIB1 and αIIb interaction (CIB1-GST : F-αIIb peptide) (Homo sapiens)
Construct: made in house; host or cells: BL-21 plus RIL cells (E. coli)
Sequence (Q99828 1-191): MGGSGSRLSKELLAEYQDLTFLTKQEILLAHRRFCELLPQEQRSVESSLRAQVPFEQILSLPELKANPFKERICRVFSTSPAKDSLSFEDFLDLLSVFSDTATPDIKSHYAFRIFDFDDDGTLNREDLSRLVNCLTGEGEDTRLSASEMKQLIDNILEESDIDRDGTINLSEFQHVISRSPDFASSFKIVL
Assay: FP assay, 1536-well qHTS format (primary and confirmatory screen)
Assay type: binding
Conditions: qHTS primary screen hits, Table S2; read-out: IC50
Write the value in µM as a bare number.

A selection of reference data follows.
# molecule, IC50, µM
data = [
    ("Cl.NS(=O)(=O)c1cccc(Cc2c(-c3ccc(F)c(F)c3)nn(-c3nc(C(=O)O)cs3)c2O)c1 [NCGC00356269-01]", 50.1),
    ("Cc1cc(SCc2sc(-c3ccc(Cl)c(Cl)c3)nc2C)ccc1OCC(=O)O.O=C(O)C(F)(F)F [NCGC00319075-01]", 34),
    ("COc1ccc(-n2ncc3c2CCCC3NC(=O)c2ccccc2Cl)cc1.O=C(O)C(F)(F)F (stereo not shown) [NCGC00273443-01]", 25.1),
]

Continue with the molecule presented below.
// query IC50 value for entry CO[C@@]1(NC(=O)CSCC#N)C(=O)N2C(C(=O)[O-])=C(CSc3nnnn3C)CS[C@@H]21.[Na+] [NCGC00023016-07]
50.1

----------
Biological target: GST-CIB1 : F-scrambled peptide (Homo sapiens)
Construct: made in house; host or cells: BL-21 plus RIL cells (E. coli)
Sequence (Q99828 1-191): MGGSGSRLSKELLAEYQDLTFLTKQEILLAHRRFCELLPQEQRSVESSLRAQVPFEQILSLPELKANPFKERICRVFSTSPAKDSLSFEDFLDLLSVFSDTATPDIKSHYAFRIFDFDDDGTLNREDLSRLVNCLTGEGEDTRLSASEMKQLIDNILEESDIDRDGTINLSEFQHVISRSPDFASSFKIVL
Assay: FP scrambled-peptide counter screen, 384-well format
Type: binding
Settings: F-scrambled peptide
So basically, if 384-well COUNTERSCREEN Efficacy (%) comes in under 30% it's label 1, and if it's 30% or more it's label 0.

# compound, class-assignment
measured = [
    ("Cc1ccc(S(=O)(=O)Nc2cnccc2C(=O)Nc2nc(-c3ccccc3)cs2)cc1.O=C(O)C(F)(F)F [NCGC00262386-01]", "label 0"),
    ("O=C(O)C(F)(F)F.O=c1c2ccccc2nc2sc(Nc3cccc(N4CCN5CCCCC5C4)c3)nn12 (stereo not shown) [NCGC00189229-01]", "label 0"),
    ("Cc1c(C)n(Cc2ccc(-c3ccccc3C(=O)O)cc2)c2ccc(C(=O)N[C@@H](C)c3ccc([N+](=O)[O-])cc3)cc12 [NCGC00347955-04]", "label 0"),
    ("Cc1cc(=O)oc2cc(SC3=NS(=O)(=O)c4ccccc43)ccc12 [NCGC00189497-01]", "label 0"),
    ("COC(=O)C12C(=O)C(C)(O)C(=O)C1(C)C(C)=CC1C34CCC(OC3=O)C(C)(CO)C4CCC12C (stereo not shown) [NCGC00380147-01]", "label 1"),
    ("Oc1ccc2ccccc2c1SSc1c(O)ccc2ccccc12 [NCGC00186047-02, IPA-3, reference compound]", "label 1"),
]

# ---- query compound ----
Criterion: 384-well COUNTERSCREEN Efficacy (%) strictly below 30%. Is it met by NS(=O)(=O)c1ccc(Cc2c(-c3cccc(-c4ccccc4F)c3)nn(-c3nc(C(=O)O)cs3)c2O)cc1.O=C(O)C(F)(F)F [NCGC00356464-01] ?
label 0
